Recorded values, source PubChem BioAssay.

Listed compounds paired with reported composite z-score
target.entity: Alpha-bungarotoxin (Bungarus multicinctus) (UniProt P60615)
Sequence (P60615 whole entry, looked up): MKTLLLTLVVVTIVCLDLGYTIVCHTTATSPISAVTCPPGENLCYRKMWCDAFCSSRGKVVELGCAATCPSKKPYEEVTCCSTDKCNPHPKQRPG
method.description: alpha-bungarotoxin binders on microarray, profiling panel, artefact control for SMM control protein annotation, biochemical, small-molecule microarray, Alexa647 label, 635/667 nm fluorescence (AID 1117)
conditions.used: alpha-BTX-A647 binding fluorescence, higher = more signal
Lab note: jot down the number only; don't add units.

Record excerpt, results attached:
compound=COC(=O)[C@@]1(Cc2ccc(F)cc2)[C@H]2c3cc(C(=O)N(C)C)n(CCn4cc([N+](=O)[O-])nc4C)c3C[C@H]2CN1C(=O)c1ccccc1 measured_endpoint="composite z-score" measured=0.0533
compound=C=CC[C@@]12N=C(c3ccc(OCCCO)cc3)O[C@@H]1c1ccccc1N(Cc1ccccc1)C2=O measured_endpoint="composite z-score" measured=0.858
compound=COCC(=C=CC[C@@H](O)c1ccc(OCCO)cc1)C[C@@H](O)COCc1ccccc1 measured_endpoint="composite z-score" measured=0.0353
compound=C[N+](C)(C)CCCCCCNC(=O)[C@@H]1C[C@@H]2C(=O)N[C@@H](Cc3ccccc3)C(=O)N2[C@@H]1c1ccc(O)cc1 measured_endpoint="composite z-score" measured=1.54
compound=CN(C)C(=O)[C@]1(Cc2ccccc2CN=[N+]=[N-])N=C(c2ccc(OCCCO)cc2)O[C@@H]1c1ccccc1N=[N+]=[N-] measured_endpoint="composite z-score" measured=1.14
compound=C=C(COC)C(=O)CC[C@@H](OC(=O)c1cccnc1)c1cccc(OCCO)c1 measured_endpoint="composite z-score" measured=-0.101
compound=COC(=O)[C@H](Cc1ccc(O)cc1)N1CC2=CCCC=C[C@@H]2[C@H]1[C@H](O)Cc1ccccc1 measured_endpoint="composite z-score" measured=0.0212
compound=CCOC(=O)C1=CC[C@@H](c2ccc(F)cc2)N(S(=O)(=O)c2ccc(C)cc2)[C@H]1c1ccc([N+](=O)[O-])cc1 measured_endpoint="composite z-score" measured=0.937

What value of composite z-score has been recorded for this entry: COCC1=C([C@H](O)CCc2ccccc2)[C@H](CO)n2c(=O)n(-c3ccccc3)c(=O)n2C1
-0.349

How about this compound: O=C1NC(=O)C2C1C=CC(C(O)c1ccc(F)cc1)N2Nc1ccccn1 (centres undefined)
0.349

Next entry: C[C@]1(C(=O)NCC(F)(F)F)c2ccccc2C(=O)N(Cc2ccc(OC(F)(F)F)cc2)[C@H]1c1ccc(CO)cc1
0.25

# iterate: CC1CC/C=C\[C@H]2OC34C=CCN(CCN5CCOCC5)C(=O)[C@H]3N(CCCCCCO)C(=O)[C@@H]4C2C(=O)O1 (some centres undefined)
-0.307

Input NCCCC[C@@H]1NC(=O)[C@H]2C[C@@H](C(=O)O)[C@@H](c3cccc(OCCO)c3)N2C1=O
2.12

Quick one: COC(=O)[C@@]1(Cc2ccccc2CN=[N+]=[N-])COC(c2ccc(OCCCO)cc2)=N1
3.02

Similarly, COCCOC(=O)N1C(=O)[C@@]2(c3ccccc31)[C@H](C(=O)N1CCCCCCC1)[C@H]1C(=O)O[C@H](c3ccccc3)[C@H](c3ccccc3)N1[C@@H]2c1ccc(O)cc1 ?
3.37
